Hello, the source for this data is patent US10844044B2, in case you need it.

- MEASUREMENT TARGET: WDR5 (Homo sapiens (Human), UniProt P61964)
- TEST SUMMARY: TR-FRET binding assay (displacement of 10mer-Thr-FAM probe from WDR5)
- CONDITION: read-out: Ki for Inhibition of WDR5 by TR-FRET assay; TR-FRET, 10mer-Thr-FAM probe, WDR5-His tag 2 nM, pH 7.0
pKi: −log10 of the molar value.
Listing of recorded pKi by entry.
MEASUREMENT NAME: pKi

INSERT INTO assay_data (compound, qualifier_symbol, experimental_value) VALUES
  ('Cc1cc([C@@H](NC(=O)c2cc(Cn3ccn(C4CC4)c3=N)cc(-c3cccnc3C(F)(F)F)c2)C2CC2)ccc1F [Example 115]', '>', 10.00),
  ('COc1cc(CNC(=O)c2cc(Cn3ccn(C4CC4)c3=N)cc(-c3ccc(F)cc3C)c2)cc(OC)c1 [Example 117]', '=', 9.82),
  ('CCOc1cc(Cn2ccn(C)c2=N)cc(C(=O)N[C@@H](C)c2ccc(F)c(C)c2)c1 [Example 176]', '=', 9.30),
  ('Cc1cccc(C2(NC(=O)c3cc(Cn4ccn(C)c4=N)cc(-c4cn(C)nc4C(F)(F)F)c3)CCC2)c1 [Example 220]', '>', 10.00),
  ('COc1cc(CNC(=O)c2cc(Cn3ccn(C)c3=N)cc(-c3c(C)ccc4[nH]ncc34)c2)cc(OC)c1 [Example 35]', '=', 8.89),
  ('Cc1cc(-c2cc(Cn3ccn(C)c3=N)cc(C(=O)NCc3ccc(Cl)c(C)c3)c2)ccn1 [Example 18]', '=', 8.46),
  ('Cc1cc([C@@H](NC(=O)c2cc(Cn3ccccc3=N)cc(-c3cccnc3C(F)(F)F)c2)C2CC2)ccc1F [Example 342]', '>', 10.00);

###

- MEASUREMENT TARGET: WDR5 (Homo sapiens (Human))
- TEST SUMMARY: TR-FRET binding assay (displacement of 10mer-Thr-FAM probe from WDR5)
- CONDITION: read-out: Ki for Inhibition of WDR5 by TR-FRET assay; TR-FRET, 10mer-Thr-FAM probe, WDR5-His tag 2 nM, pH 7.0
Response field label takes true (1) when Ki is strictly below 0.3 nM and false (0) in all other cases.

INSERT INTO results (compound, class) VALUES
  ('C[C@H](NC(=O)c1cc(Cn2ccn(C)c2=N)cc(-c2cccnc2C(F)(F)F)c1)c1ccc(C(F)(F)F)cc1', 'false (0)'),
  ('Cc1cc([C@@H](NC(=O)c2cc(CN3CCOC3=N)cc(-c3cn(CC(C)C)nc3C(F)(F)F)c2)C2CC2)ccc1F', 'false (0)'),
  ('Cc1cc([C@@H](NC(=O)c2cc(Cn3ccn(C)c3=N)cc(-c3ccnc4c3CCC4)c2)C2CC2)ccc1F', 'true (1)'),
  ('COc1cc([C@@H](NC(=O)c2cc(Cn3ccn(C)c3=N)cc(-c3cn(C)nc3C(F)(F)F)c2)C2CC2)ncc1F', 'true (1)'),
  ('Cc1cc(C(C)NC(=O)c2cc(Cn3ccn(C)c3=N)cc(-c3ccc(F)cc3C)n2)ncc1Cl (stereo not drawn)', 'false (0)'),
  ('Cc1cc(-c2cc(Cn3ccn(C)c3=N)cc(C(=O)NCc3ncc(Cl)cn3)c2)ccn1', 'false (0)'),
  ('Cc1cc([C@@H](NC(=O)c2cc(Cn3ccn(C)c3=N)cc(N3CCCC3)c2)C2CC2)ccc1F', 'false (0)'),
  ('Cc1cc([C@@H](NC(=O)c2cc(Cn3ccn(C)c3=N)cc(-n3ccnc3C)c2)C2CC2)ccc1F', 'true (1)'),
  ('Cc1cc([C@@H](NC(=O)c2cc(Cn3ccn(C)c3=N)cc(-c3ncccc3C(F)(F)F)c2)C2CC2)ccc1F', 'false (0)'),
  ('Cn1ccn(Cc2cc(C(=O)NC(CC(=O)O)c3ccc(Cl)c(Cl)c3)cc(-c3ccc(F)cc3C(F)(F)F)c2)c1=N (stereo not drawn)', 'true (1)'),
  ('Cc1ncccc1-c1cc(Cn2ccn(C)c2=N)cc(C(=O)NCc2ncc(Cl)cn2)c1', 'false (0)'),
  ('Cc1cnccc1-c1cc(Cn2ccn(C)c2=N)cc(C(=O)NCc2ccc(Cl)c(Cl)c2)c1', 'false (0)'),
  ('C=C(c1cc(Cn2ccn(C)c2=N)cc(C(=O)N[C@H](c2ccc(F)c(C)c2)C2CC2)c1)C(F)(F)F', 'true (1)'),
  ('CCn1cc(-c2cc(CN3CCOC3=N)cc(C(=O)NCC3CCCO3)c2)c(C(F)(F)F)n1 (stereo not drawn)', 'false (0)'),
  ('CC(C)n1cc(-c2cc(CN3CCSC3=N)cc(C(=O)N[C@H](c3ccc(F)c(F)c3)C3CC3)c2)c(C(F)(F)F)n1', 'false (0)');

###

- MEASUREMENT TARGET: WDR5 (Homo sapiens (Human), UniProt P61964)
- TEST SUMMARY: TR-FRET binding assay (displacement of 10mer-Thr-FAM probe from WDR5)
- CONDITION: read-out: Ki for Inhibition of WDR5 by TR-FRET assay; TR-FRET, 10mer-Thr-FAM probe, WDR5-His tag 2 nM, pH 7.0
Measured Ki values are reported for all entries that follow.
MEASUREMENT NAME: Ki

INSERT INTO results (compound, experimental_value) VALUES
  ('COc1cc(CNC(=O)c2cc(Cn3ccn(C)c3=N)cc(-c3c(C)cc(F)cc3C)c2)cc(OC)c1 [Example 65]', '0.63 nM'),
  ('Cc1cc(CNC(=O)c2cc(Cn3ccn(C)c3=N)cc(-c3cccc4[nH]nc(C)c34)c2)ccc1Cl [Example 46]', '1.3 nM'),
  ('Cc1ccnc(C(NC(=O)c2cc(Cn3ccn(C)c3=N)cc(-c3ncccc3C(F)(F)F)c2)C2CC2)c1 (stereo not drawn) [Example 364]', '4.3 nM'),
  ('Cc1[nH]c(=O)ccc1-c1cc(Cn2ccn(C)c2=N)cc(C(=O)NCc2ccc(Cl)c(Cl)c2)c1 [Example 112]', '29 nM'),
  ('Cc1ncccc1-c1cc(Cn2ccn(C)c2=N)cc(C(=O)NC(C2CC2)C2CC2)c1 [Example 39]', '17 nM'),
  ('Cc1cc(F)ccc1-c1cc(Cn2ccn(C)c2=N)cc(C(=O)NCc2ccc(Cl)c(F)c2)n1 [Example 359]', '8.7 nM'),
  ('Cc1cc([C@@H](NC(=O)c2cc(Cn3ccn(C)c3=N)cc(-c3ccccc3C)c2)C2CC2)ccc1F [Example 201]', '< 0.1 nM'),
  ('COc1ccnc(CNC(=O)c2ccc(F)c(Cn3ccn(C)c3=N)c2)c1 [Example 366]', '13 nM'),
  ('Cc1cc([C@@H](NC(=O)c2cc(Cn3ccn(C)c3=N)cc(N3CCC[C@@H]3C(F)(F)F)c2)C2CC2)ccc1F [Example 222]', '0.33 nM'),
  ('Cc1ccnc(C(NC(=O)c2cc(Cn3ccn(C)c3=N)cc(-c3ccc(F)cc3C)n2)C2CC2)c1 (stereo not drawn) [Example 356]', '182 nM'),
  ('CCc1coc(=N)n1Cc1cc(C(=O)N[C@H](c2ccc(F)c(C)c2)C2CC2)cc(-c2cccnc2C(F)(F)F)c1 [Example 256]', '2.7 nM'),
  ('Cc1cc([C@@H](NC(=O)c2cc(Cn3ccn(C)c3=N)cc(-c3cccnc3C(F)(F)F)c2)C2CC2)ccc1F [Example 60]', '< 0.1 nM'),
  ('CC(C)n1cc(-c2cc(CN3CCN(C)C3=N)cc(C(=O)N[C@H](c3ccc(F)c(F)c3)C3CC3)c2)c(C(F)(F)F)n1 [Example 216]', '< 0.1 nM'),
  ('Cc1cc(CNC(=O)c2cc(Cn3cc[nH]c3=N)cc(-c3cccn3C)c2)ccc1Cl [Example 19]', '0.35 nM'),
  ('CCOc1c(C(=O)N[C@@H](C)c2ccc(F)c(C)c2)cc(Cn2ccn(C)c2=N)cc1-c1cn(C)nc1C(F)(F)F [Example 209]', '< 0.1 nM');

###

- MEASUREMENT TARGET: WDR5 (Homo sapiens (Human))
- TEST SUMMARY: TR-FRET binding assay (displacement of 10mer-Thr-FAM probe from WDR5)
- CONDITION: read-out: Ki for Inhibition of WDR5 by TR-FRET assay; TR-FRET, 10mer-Thr-FAM probe, WDR5-His tag 2 nM, pH 7.0
Ki for assorted molecules
MEASUREMENT NAME: Ki

INSERT INTO results (molecule, measurement_name, experimental_value) VALUES
  ('Cc1cc([C@@H](NC(=O)c2cc(Cn3ccn(C)c3=N)cc(N3CCC[C@H]3C)c2)C2CC2)ccc1F [Example 226]', 'Ki', '7.1 nM'),
  ('Cn1ccn(Cc2cc(C(=O)N[C@@H](CC(=O)O)c3cccc(C(F)(F)F)c3)c(F)c(-c3ccc(F)cc3C(F)(F)F)c2)c1=N [Example 148]', 'Ki', '0.29 nM'),
  ('Cc1cc([C@@H](NC(=O)c2cc(Cn3cccc(F)c3=N)cc(-c3cccnc3C(F)(F)F)c2)C2CC2)ccc1F [Example 350]', 'Ki', '0.12 nM'),
  ('COc1ccnc(CNC(=O)c2cc(Cn3ccn(C)c3=N)cc(-c3ccncc3C)c2)c1 [Example 8]', 'Ki', '0.27 nM'),
  ('COc1cc(OC)cc(C(NC(=O)c2cc(Cn3ccn(C)c3=N)cc(-c3ccc(F)cc3OC(F)F)c2)C2CC2)c1 (stereo not shown) [Example 63]', 'Ki', '0.1 nM'),
  ('Cc1cc([C@@H](NC(=O)c2cc(Cn3ccsc3=N)cc(-c3cn(C)nc3C(F)(F)F)c2)C2CC2)ccc1F [Example 321]', 'Ki', '< 0.1 nM'),
  ('Cc1ccnc(C(NC(=O)c2cc(Cn3ccn(C)c3=N)cc(-c3c(C)ccc4[nH]ncc34)c2)C2CC2)c1 (stereo not shown) [Example 47]', 'Ki', '0.88 nM');
